# assay-method-text: Probe fluorescence ratio response to arachidonic acid relative to ADIFAB2
# Type: binding
# measurement-context: arachidonic acid; response relative to ADIFAB2
For each entry below, report its DR/DR AA value.
Give bare numbers.

| molecule | metric | recorded-value |
| --- | --- | --- |
| 18V 31Y 73I 72A (protein, listed as Rattus norvegicus, PEPTIDE (1)...(131) wild-type rat intestinal fatty acid binding protein) AFDGTWKVDRNENYEKFVEKMGINVVKRKLYAHDNLKLTITQEGNKFTVKESSNFRNIDVVFELGVDFAYSAIDGTELTGTWTMEGNKLVGKFKRVDNGKELIAVREISGNELIQTYTYEGVEAKRIFKKE | DR/DR AA | 1.946 |

Continue with the next molecule.
Name the recorded DR/DR AA for 38M 72G 117F (protein, listed as Rattus norvegicus, PEPTIDE (1)...(131) wild-type rat intestinal fatty acid binding protein) AFDGTWKVDRNENYEKFMEKMGINVVKRKLGAHDNLKMTITQEGNKFTVKESSNFRNIDVVFELGVDFAYSGADGTELTGTWTMEGNKLVGKFKRVDNGKELIAVREISGNELIQTFTYEGVEAKRIFKKE .
1.280
